- target under test: MBP–β1AR6P (Meleagris gallopavo, UniProt P07700, C116L/C358A/D322K/DEL244-271/E130W/F327A/F338M/M44C/M90V/V103C)
- protocol summary: Radioligand saturation binding, receptor in nanodiscs
- Set-up: species or system turkey (Meleagris gallopavo)
- condition details: read-out: apparent Kd
parameter measured: pKd
To interpret pKd, take it as minus log10 of a concentration measured in moles per litre.

Field request: pKd | item: CCCc1ccccc1OCC(O)CNC(C)C (stereo not shown) [[^3H]DHA, tritiated dihydroalprenolol]
8.22

---

- target under test: MBP–β1AR6P + mini-Gs (Meleagris gallopavo, UniProt P07700, C116L/C358A/D322K/DEL244-271/E130W/F327A/F338M/M44C/M90V/V103C)
- protocol summary: Radioligand saturation binding, receptor in nanodiscs with mini-Gs
- condition details: read-out: apparent Kd
parameter measured: pKd
Scale note: pKd = -log10(concentration in M).

pKd lookup needed for CCCc1ccccc1OCC(O)CNC(C)C (stereo not shown) [[^3H]DHA, tritiated dihydroalprenolol] , thanks.
8.82

---

- target under test: MBP–β1AR6P + βarr1 (Meleagris gallopavo, UniProt P07700, C116L/C358A/D322K/DEL244-271/E130W/F327A/F338M/M44C/M90V/V103C)
- protocol summary: Radioligand saturation binding, receptor in nanodiscs with βarr1
- condition details: read-out: apparent Kd
parameter measured: pKd
In textbook form, pKd equals minus log to base ten of the concentration in mol/L.

Using the record for CCCc1ccccc1OCC(O)CNC(C)C (stereo not shown) [[^3H]DHA, tritiated dihydroalprenolol] , report its pKd.
8.22
